- ASSAY TARGET: 5HT1A receptor
- TEST PROTOCOL: 3H-8-OH-DPAT binding assay (Method I a)
- PROTOCOL CONDITIONS: read-out: IC50, test method a
REPORTED METRIC: IC50 (nM)
Only the number, expressed in nM, is required.

Below: 3 compounds and their reported IC50.
CC(N)Cn1ccc2c1-c1ccccc1OC2 (racemic) [Example 34] :: 1620
CC(N)Cn1ccc2c1-c1cc(Cl)ccc1C2 (racemic) [Example 21] :: 1350
COc1ccc2c(c1)-c1c(ccn1C[C@H](C)N)C2 [Example 3] :: 2830

Pending compound:
Problem: I am curious: what IC50 value has been reported for CC(N)Cn1ccc2c1-c1ccc(Cl)cc1C2 (racemic) [Example 53] ?
Solution: 1100
